- target: HRgpA-6H (Porphyromonas gingivalis) (UniProt P28784)
- measurement protocol: ELISA, FASEBA Fab on coated HRgpA-6H
Overview of reported OD450nm across a group of binders:
reported endpoint: OD450nm

[[record]]
binder = "KB001 mouse Fab VL S53E (Fab, V domains shown) VH: EVQLKQSGPGLVAPSQSLSITCTVSGFSLSIYSVHWVRQPPGKGLEWLGMIWGGGSSDYNSALKSRLSISKDNSKSQVFLKMNSLQTDDTAMYYCARNGNFYAMDYWGQGTSVTVSS VL: QIVLTQSPAIMSASLGERVTMTCTASSSVSSSFLHWYQQKPGSSPQLWIYSTENLASGVPARFSGSGSGTSYSLTISSMEAEDAATYYCHQYHHSPYIYTFGGGTKLEIK"
result = 0.766

[[record]]
binder = "KB001 mouse Fab VL S27Y (Fab, V domains shown) VH: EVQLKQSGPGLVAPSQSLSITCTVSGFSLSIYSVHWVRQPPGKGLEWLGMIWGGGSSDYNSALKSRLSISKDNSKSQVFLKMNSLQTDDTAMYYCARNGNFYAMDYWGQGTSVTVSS VL: QIVLTQSPAIMSASLGERVTMTCTASYSVSSSFLHWYQQKPGSSPQLWIYSTSNLASGVPARFSGSGSGTSYSLTISSMEAEDAATYYCHQYHHSPYIYTFGGGTKLEIK"
result = 0.617

